B1: glmS ribozyme (parent)
chain: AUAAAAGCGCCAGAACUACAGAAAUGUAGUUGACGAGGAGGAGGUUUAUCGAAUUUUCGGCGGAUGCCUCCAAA

variants of: B1; assay: self-cleavage kobs at 160 uM GlcN6P; higher = faster cleavage; RNA array; details: with glucosamine-6-phosphate
This sample holds only a part of the variants without activity.
Is self-cleavage kobs at 160 uM GlcN6P at least 0.0001 s⁻¹? Then rule met. If not, rule not met.

Here's what some known entries look like.
AUAAAAGCGCCAGAACUACAGAAAUGUAGUUGACGAAGAGGAGGUUUAUCGAAUUUUCGGCGCAUGCCUCCAAA [G37A G63C] ... rule not met
AUAAAAGCGCCAGAACUACAGAAAUGUAGUUGACGAGGAGGACGUUUAUCGAAUAUUCGGCGGUUGCCUCCAAA [G43C U55A A64U] ... rule not met

Asked: Please check the record AUAAAAGCGCCAGAAAUACAGAAAUGUAGUUGACGAGGAGGAGGUUUAUCGAAUGUUCGGCGGAUGCCUCCAAA [C16A U55G] and state if its self-cleavage kobs at 160 uM GlcN6P is at or above 0.0001 s⁻¹.
Given back: rule met

Asked: Please check the record AUAAAAGCGCCAGAACUACAGAAAUGUAGUUGACGAGGAGGAAGUUUAUCGAAUUUUCGGCGGAUGCCUGCAAA [G43A C70G] and state if its self-cleavage kobs at 160 uM GlcN6P is at or above 0.0001 s⁻¹.
Given back: rule not met

Asked: Please check the record AUAAAAGCGCCAGAACUACAGAAAUGUAGUUGACGAGGAGGAGGUUUAUCGAAUUUUCGCAGGAUGCCUCCAAA [G60C C61A] and state if its self-cleavage kobs at 160 uM GlcN6P is at or above 0.0001 s⁻¹.
Given back: rule not met

Asked: Please check the record AUAAAAGCGCCAGAACUACAGAAAUGUAGUUGACGAGGCGGAGGUUUAUCGAAUUUUCGGCGGAUGGCUCCAAA [A39C C67G] and state if its self-cleavage kobs at 160 uM GlcN6P is at or above 0.0001 s⁻¹.
Given back: rule not met

Asked: Please check the record AUAAAAGCGACAGAACUACAGAAAUGUAGUUGACGAGAAGUAGAUUUAUCGAAUUUUCUGCGGAUGCCUCCAAA [C10A G38A G41U G44A G59U] and state if its self-cleavage kobs at 160 uM GlcN6P is at or above 0.0001 s⁻¹.
Given back: rule not met

Asked: Please check the record AUAAAAGCGCCAGAACUACAGAAAUGUAGUUGACGAGGAGGAGGUUUAUCGAAUUUUCGGCUGAUGCGUCCAAA [G62U C68G] and state if its self-cleavage kobs at 160 uM GlcN6P is at or above 0.0001 s⁻¹.
Given back: rule not met

Asked: Please check the record AUAAAAGCGCCAGAACUACAGAAAUGUAGUUGCCAAGGAGGAGGUUUAUCGAAUUUUCGGCGGAUGCCUCCAAA [A33C G35A] and state if its self-cleavage kobs at 160 uM GlcN6P is at or above 0.0001 s⁻¹.
Given back: rule not met

Asked: Please check the record AUAAAAGCGCCAGAGCUACAGAAAUGUAGUUGACGAGGAGGAGGUUUAUCGAAUUUUCGGCGCAUGCCUCCAAA [A15G G63C] and state if its self-cleavage kobs at 160 uM GlcN6P is at or above 0.0001 s⁻¹.
Given back: rule not met

Asked: Please check the record AUAAAAGCGCCAGAACUACAGAAAUGUAGUUGACGAGGAGGAGGUUUAUCGAAUUUUCGGCGGAUUCCUUCAAA [G66U C70U] and state if its self-cleavage kobs at 160 uM GlcN6P is at or above 0.0001 s⁻¹.
Given back: rule met

Asked: Please check the record AUAAAAGCGCGAGAACUACAGAAAUGUAGUUGACGAGGAGGAGGUUUAUCGCAUUUUCGGCGGAUGCCUCCAAA [C11G A52C] and state if its self-cleavage kobs at 160 uM GlcN6P is at or above 0.0001 s⁻¹.
Given back: rule not met

Asked: Please check the record AUAAAAGCGCCAGCACUACAGAAAUGUAGUUGACGAGGAGGAGGUUUAUCGAAUUUUCGGCGGGUGCCUCCAAA [A14C A64G] and state if its self-cleavage kobs at 160 uM GlcN6P is at or above 0.0001 s⁻¹.
Given back: rule met

Asked: Please check the record AUAAAAGCGCCAGAACUACAGAAAUGUAGUUGACGUGGAGGAGGUUUAUCGAAUUUUCGGCGGAUGCCUGCAAA [A36U C70G] and state if its self-cleavage kobs at 160 uM GlcN6P is at or above 0.0001 s⁻¹.
Given back: rule not met

Asked: Please check the record AUAAAAGCGCCAGAACUACAGAAAUGUAGAUGACGAGGAGGAGGUUUAUCGAAUUUUCGGCGGAUGCCUGCAAA [U30A C70G] and state if its self-cleavage kobs at 160 uM GlcN6P is at or above 0.0001 s⁻¹.
Given back: rule not met

Asked: Please check the record AUAAAAGCGCCAGAACUACAGAAAUGUAGUUGACGAGGAGGAGGUUUAUGGAAUUUUCGGCGGAUGCCUCCAAA [C50G] and state if its self-cleavage kobs at 160 uM GlcN6P is at or above 0.0001 s⁻¹.
Given back: rule met

Asked: Please check the record AUAAAAGCGCCAGGUCUACAGAAAUGUAGUUGACGAGGAGGAGGUUUAUCGAAUUUUCGGCGGAUGCGUCCAAA [A14G A15U C68G] and state if its self-cleavage kobs at 160 uM GlcN6P is at or above 0.0001 s⁻¹.
Given back: rule not met
